B1: library; numbered along this chain (parent)
chain: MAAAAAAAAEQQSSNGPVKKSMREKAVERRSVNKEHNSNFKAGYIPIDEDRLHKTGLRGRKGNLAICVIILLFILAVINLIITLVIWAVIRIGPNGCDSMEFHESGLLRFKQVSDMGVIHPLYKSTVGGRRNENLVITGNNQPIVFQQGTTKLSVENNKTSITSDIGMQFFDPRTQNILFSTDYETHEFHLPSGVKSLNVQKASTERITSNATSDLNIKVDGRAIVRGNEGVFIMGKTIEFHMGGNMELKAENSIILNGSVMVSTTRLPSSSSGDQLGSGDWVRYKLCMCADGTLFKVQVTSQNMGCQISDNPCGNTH

Variants of: B1
test-protocol: SGCB cell-surface expression functional score (HA stain, bin4 vs bin1, normalised to synonymous) (log10 ratio); higher = more cell-surface SGCB (functional)
Binary call on SGCB cell-surface expression functional score (log10): Condition met from 0.1 upward, Condition not met beneath that.

G194D    Condition met
S214Q    Condition not met
K297I    Condition not met
N79C    Condition met
M22N    Condition met

Let us examine a further case.
Check the entry L108Y : does SGCB cell-surface expression functional score (log10) equal or exceed 0.1? Condition not met
